Test system: H1299 (p53−)
assay-details: siRNA inhibition of MMR functions, alamar blue growth inhibition
Format: cell-based, human
measurement-context: no siRNA knock out, read-out: IC50, Control
Can you tell me IC50 for the items I'm about to list?
Answers are plain numbers, in nM.

{"mol": "COc1cc2c(cc1OCCCCN1CCN(CCCCOc3cc4c(cc3OC)C(=O)N3CCC[C@H]3C=N4)CC1)N=C[C@@H]1CCCN1C2=O", "IC50 / nM": 900}

Turning to the following compound.
# IC50 lookup, item COc1cc2c(cc1OCCCCCOc1cc3c(cc1OC)C(=O)N1CCC[C@H]1C(=O)N3)N=C[C@@H]1CCCN1C2=O
600

The measurements presented in this section are drawn from patent US9744175B2.
